Provenance of the data: patent US6737383B1

Each entry below lists one item and its recorded Redroot pigweed plant response rating value.
# System: pigweed
# Procedure Details: Test B pre/postemergence pigweed
# Assay type: in vivo, Amaranthus retroflexus
# Condition Details: Preemergence, Rate 500 g/ha; scale 0 to 10, 0 is no effect, 10 is complete control
# answer = number (no unit)

These solved cases illustrate the format of a correct answer.
> print(dat)
                                   compound                                measure  experimental.result
1  COC(CCl)n1c(=O)on(C(=O)N(c2ccc(Cl)cc2)C(C)C)c1=O (centres unmarked) [Compound 458]  Redroot pigweed plant response rating                    8
2  CC(C)N(C(=O)n1oc(=O)n(CNC(=O)c2ccccc2)c1=O)c1ccc(F)cc1 [Compound 445]  Redroot pigweed plant response rating                   10
3  CC(C)C(=O)Cn1c(=O)on(C(=O)N(c2ccc(Cl)cc2)C(C)C)c1=O [Compound 487]  Redroot pigweed plant response rating                   10
4  CC(C)N(C(=O)n1oc(=O)n(C(C)CCl)c1=O)c1ccc(F)cc1F (centres unmarked) [Compound 408]  Redroot pigweed plant response rating                   10
5  C=CC[Si](C)(C)Cn1c(=O)on(C(=O)N(c2ccc(F)cc2)C(C)C)c1=O [Compound 426]  Redroot pigweed plant response rating                   10
6  CC(C)Cn1c(=O)on(C(=O)N(c2ccc(Cl)cc2)C(C)C)c1=O [Compound 417]  Redroot pigweed plant response rating                   10
7  CC(C)N(C(=O)n1oc(=O)n(CCCl)c1=O)c1ccc(Cl)cc1 [Compound 474]  Redroot pigweed plant response rating                    7

Consider now this further compound.
Item under review: CC(C)N(C(=O)n1oc(=O)n(C2CCCCCC2)c1=O)C1=CCCCC1 [Compound 428] . Reported Redroot pigweed plant response rating?
0
